Examples of molecules with documented clearance follow.
- ASSAY_PROCEDURE: in vivo
- DETAILS: dog
Number only, in mL/min/kg; omit the unit.

Cc1cc(C(=O)Nc2ccc(-c3ccccc3S(N)(=O)=O)cc2)n(-c2cccc(C(N)=O)c2)n1	4.67
Cc1cc(C(=O)Nc2ccc(-c3ccccc3S(N)(=O)=O)cc2)n(-c2ccc3onc(N)c3c2)n1	5
Cc1cc(C(=O)Nc2ccc(-c3ccccc3S(N)(=O)=O)cc2)n(-c2ccc3ccnc(N)c3c2)n1	5.5

Now for the molecule whose clearance we want.
// COc1ccc(-n2nc(C)cc2C(=O)Nc2ccc(-c3ccccc3S(N)(=O)=O)cc2)cc1 : clearance value = 1.5
